Data provenance is the supplement of paper PMC11061612.

system: NCI-H2452 (Mesothelioma); assay: Bliss excess, mean over the matrix (fraction); higher = more synergy
measurementLabel: Bliss excess

A selection of reference data follows.
CC1(C)CCC(CN2CCN(c3ccc(C(=O)NS(=O)(=O)c4ccc(NCC5CCOCC5)c([N+](=O)[O-])c4)c(Oc4cnc5[nH]ccc5c4)c3)CC2)=C(c2ccc(Cl)cc2)C1 [Venetoclax] + CCN(CCO)CCCOc1ccc2c(Nc3cc(CC(=O)Nc4cccc(F)c4)[nH]n3)ncnc2c1 [AZD2811] (first compound max 1 µM, 7x7, partner max 1 µM) | 0.0268
C=CCn1c(=O)c2cnc(Nc3ccc(N4CCN(C)CC4)cc3)nc2n1-c1cccc(C(C)(C)O)n1 [AZD1775] + CCc1c2c(nc3ccc(O)cc13)-c1cc3c(c(=O)n1C2)COC(=O)[C@]3(O)CC [SN-38] (first compound max 1 µM, partner max 0.3 µM) | -0.0145

If you can, please state the reported Bliss excess value of Cc1c2c(nn1C)CSCc1cc(n(C)n1)CSc1cc(c3ccccc3c1)OCCCc1c(C(=O)O)n(C)c3c-2c(Cl)ccc13 [AZD5991] + CC(=O)O[C@H]1C(=O)[C@@]2(C)[C@H]([C@H](OC(=O)c3ccccc3)[C@]3(O)C[C@H](OC(=O)[C@H](O)[C@@H](NC(=O)c4ccccc4)c4ccccc4)C(C)=C1C3(C)C)[C@]1(OC(C)=O)CO[C@@H]1C[C@@H]2O [Paclitaxel] (first compound max 1 µM, 7x7, partner max 3 µM) .
0.0378

----------
tested on: NCI-H1435 (Non-Small Cell Lung Carcinoma); test: combination Emax (second highest fraction inhibited in the dose matrix, 72 h); higher = more inhibition; extreme values may be limits of the assay
Catalogue of combination Emax readings, one per entry.

Cc1c2c(nn1C)CSCc1cc(n(C)n1)CSc1cc(c3ccccc3c1)OCCCc1c(C(=O)O)n(C)c3c-2c(Cl)ccc13 [AZD5991] + Nc1ccn([C@@H]2O[C@H](CO)[C@@H](O)C2(F)F)c(=O)n1 [Gemcitabine] (first compound max 1 µM, 7x7, partner max 0.3 µM) | 0.317

Let us examine a further case.
Entry C=CCn1c(=O)c2cnc(Nc3ccc(N4CCN(C)CC4)cc3)nc2n1-c1cccc(C(C)(C)O)n1 [AZD1775] + C[C@@H]1COCCN1C2=NC(=NC(=C2)C3(CC3)[S@](=N)(=O)C)C4=C5C=CNC5=NC=C4 [AZD6738] (first compound max 1 µM, partner max 10 µM) , system NCI-H1435 (Non-Small Cell Lung Carcinoma): what combination Emax was measured?
0.398

----------
system: NCI-H1648 (Lung Adenocarcinoma); test: Bliss excess, mean over the matrix (fraction); higher = more synergy
measurementLabel: Bliss excess
Please reply with the value in numeric form only.

COc1cccc(OCCCN)c1-c1cc(Nc2cnc(C#N)cn2)n[nH]1 [Prexasertib] + C=CCn1c(=O)c2cnc(Nc3ccc(N4CCN(C)CC4)cc3)nc2n1-c1cccc(C(C)(C)O)n1 [AZD1775] (first compound max 1 µM, partner max 1 µM) | 0.0286

Now for a further compound.
Need Bliss excess, item Cc1c2c(nn1C)CSCc1cc(n(C)n1)CSc1cc(c3ccccc3c1)OCCCc1c(C(=O)O)n(C)c3c-2c(Cl)ccc13 [AZD5991] + C=CCn1c(=O)c2cnc(Nc3ccc(N4CCN(C)CC4)cc3)nc2n1-c1cccc(C(C)(C)O)n1 [AZD1775] (first compound max 1 µM, partner max 1 µM)
-0.0359
